Molecular target: human mAChR M4 (Homo sapiens, UniProt P08173)
Construct: expressed in transfected cells; host or cells: CHO-K1 (ATCC), stably expressing hM4 and Gqi5
Assay: mAChR M4 cell-based functional assay: calcium flux (Fluo-4, FDSS), positive allosteric modulator activity on the EC20 acetylcholine response, hM4-Gqi5 CHO-K1 cells
Conditions: CHO-K1, human M4; % ACh maximum at 30 μM
Emax at 30 µM values for the molecules below.
Value expressed in %; do not type the unit.

Below, each entry is followed by its recorded Emax at 30 µM result.
molecule	unit symbol	value measured
FC(F)(F)c1cnc2c(c1)CN(c1nc(Cl)nc3ccccc13)CC2 [Compound 123]	%	68
Cn1cc(-c2cnc3c(c2)CN(c2ncnc4ccc(F)cc24)CC3)cn1 [Compound 15]	%	105
Cc1nc(N2CCc3ncc(N4CCOc5ncccc54)cc3C2)c2cc(F)ccc2n1 [Compound 85]	%	85
Cc1nn(C)cc1-c1cnc2c(c1)CN(c1ncnc3cc(F)c(F)cc13)CC2 [Compound 8]	%	87

Please turn your attention to the following entry.
Req: Could you share which Emax at 30 µM value was measured for Cc1nn(-c2cnc3c(c2)CN(c2ncnc4ccc(F)cc24)CC3)c2cccnc12 [Compound 218] ?
Resp: 73

* * *

Biological target: human mAChR M4 (Homo sapiens, UniProt P08173)
Construct: expressed in transfected cells; host or cells: CHO-K1 (ATCC), stably expressing hM4 and Gqi5
Test: mAChR M4 cell-based functional assay: calcium flux (Fluo-4, FDSS), positive allosteric modulator activity on the EC20 acetylcholine response, hM4-Gqi5 CHO-K1 cells
Conditions: human M4; PAM activity on EC20 acetylcholine response, calcium flux; read-out: Human M4 EC50
Mark t only when EC50 stays strictly below 0.5 µM. Values equal to the cut-off are f.

Observe how each entry below is paired with its result.
molecule	qualitative label
Cc1nc(N2CCc3ncc(-c4cc(C(F)(F)F)nn4C)cc3C2)c2cc(Cl)ccc2n1	f
Cc1ccc(Oc2cnc3c(c2)CN(c2ncnc4ccc(F)cc24)CC3)c(F)c1	f
Cc1nc(N2Cc3cc(C(F)(F)F)cnc3C(C)C2)c2cc(F)ccc2n1 (centres unmarked)	t
Fc1ccc2nc(C3CC3)nc(N3CCc4ncc(N5CCCn6nccc65)cc4C3)c2c1	t
FC(F)(F)c1cnc2c(c1)CN(c1ncnc3ccc(Br)cc13)CC2	t
FC(F)(F)c1ccc2ncnc(N3CCc4ncc(N5CCOc6ncccc65)cc4C3)c2c1	f

Req: Lab log: compare recorded EC50 with 0.5 µM; is it strictly lower for Fc1ncccc1Nc1cnc2c(c1)CN(c1ncnc3ccc(Cl)cc13)CC2 ?
Resp: t

Req: Just wondering, is EC50 of Cn1nccc1Nc1cnc2c(c1)CN(c1ncnc3ccc(Cl)cc13)CC2 below 0.5 µM?
Resp: t

Req: Hello, I'm reviewing records and need to know if EC50 of Cc1nc(N2CCc3ncc(C(F)(F)F)cc3C2)c2ccc(Br)cc2n1 is below 0.5 µM. Could you check?
Resp: f

Req: For Cc1noc(C)c1-c1cnc2c(c1)CN(c1nc(Cl)nc3ccc(F)cc13)CC2 , is the recorded EC50 below the cut-off of 0.5 µM?
Resp: t

Req: is_below(EC50, 0.5 µM) for Cc1nc(N2CCc3ncc(-c4ccc(C(F)(F)F)nc4)cc3C2)c2cc(F)ccc2n1 ?
Resp: t

Req: Hello, I'm reviewing records and need to know if EC50 of Fc1ccc2ncnc(N3CCc4ncc(N5CCOc6ncccc65)cc4C3)c2c1 is below 0.5 µM. Could you check?
Resp: t

* * *

Target: human mAChR M4 (Homo sapiens, UniProt P08173)
Construct: expressed in transfected cells; host or cells: CHO-K1 (ATCC), stably expressing hM4 and Gqi5
Sequence (P08173 1-479): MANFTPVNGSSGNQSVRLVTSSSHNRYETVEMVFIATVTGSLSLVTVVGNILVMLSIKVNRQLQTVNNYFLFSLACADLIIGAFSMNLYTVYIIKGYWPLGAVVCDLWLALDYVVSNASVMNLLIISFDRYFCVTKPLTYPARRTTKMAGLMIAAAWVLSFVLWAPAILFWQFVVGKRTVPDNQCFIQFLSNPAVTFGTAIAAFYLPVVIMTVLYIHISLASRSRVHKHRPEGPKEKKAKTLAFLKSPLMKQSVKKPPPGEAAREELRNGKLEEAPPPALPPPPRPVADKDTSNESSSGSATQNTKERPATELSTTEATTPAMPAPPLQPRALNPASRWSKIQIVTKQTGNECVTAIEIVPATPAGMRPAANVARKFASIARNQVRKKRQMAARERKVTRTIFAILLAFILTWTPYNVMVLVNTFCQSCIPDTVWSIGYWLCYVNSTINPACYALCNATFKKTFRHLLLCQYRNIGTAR
Experiment: mAChR M4 cell-based functional assay: calcium flux (Fluo-4, FDSS), positive allosteric modulator activity on the EC20 acetylcholine response, hM4-Gqi5 CHO-K1 cells
Conditions: human M4; PAM activity on EC20 acetylcholine response, calcium flux; read-out: Human M4 EC50
// returns f unless EC50 is strictly below 200 nM, in which case t

# example entries with known answers
compound	qualitative label
Cn1nccc1Nc1cnc2c(c1)CN(c1nc(N3CCOCC3)nc3ccc(F)cc13)CC2	f
C[C@@H]1CN(c2ncnc3cc(F)c(F)cc23)Cc2cc(N3CCOCC3)cnc21	t
Clc1nc(N2CCc3ncc(N4CCCn5nccc54)cc3C2)c2cccnc2n1	t
Cc1ccc(-c2cnc3c(c2)CN(c2nc(Cl)nc4cc(Cl)c(F)cc24)CC3)cn1	f
Cc1ncc(-c2cnc3c(c2)CN(c2ncnc4cc(F)c(F)cc24)CC3)s1	t
FC(F)(F)c1cnc2c(c1)CN(c1nc(Cl)nc3ccccc13)CC2	f
Cc1nc(N2CCc3ncc(-c4ccnn4C(C)C)cc3C2)c2cc(Cl)ccc2n1	f
Cc1ccc(-c2cnc3c(c2)CN(c2ncnc4ccc(F)cc24)CC3)cn1	t

Req: Check if EC50 falls below 200 nM for Fc1ccc2ncnc(N3CCc4ncc(N5CCO[C@H](c6ccccc6)C5)cc4C3)c2c1 .
Resp: f

Req: Please indicate whether the reported EC50 of CC1(C)CN(c2cnc3c(c2)CN(c2ncnc4cc(F)c(F)cc24)CC3)CCO1 is strictly below 200 nM.
Resp: t

* * *

Molecular target: human mAChR M4 (Homo sapiens)
Construct: expressed in transfected cells; host or cells: CHO-K1 (ATCC), stably expressing hM4 and Gqi5
Sequence (P08173 1-479): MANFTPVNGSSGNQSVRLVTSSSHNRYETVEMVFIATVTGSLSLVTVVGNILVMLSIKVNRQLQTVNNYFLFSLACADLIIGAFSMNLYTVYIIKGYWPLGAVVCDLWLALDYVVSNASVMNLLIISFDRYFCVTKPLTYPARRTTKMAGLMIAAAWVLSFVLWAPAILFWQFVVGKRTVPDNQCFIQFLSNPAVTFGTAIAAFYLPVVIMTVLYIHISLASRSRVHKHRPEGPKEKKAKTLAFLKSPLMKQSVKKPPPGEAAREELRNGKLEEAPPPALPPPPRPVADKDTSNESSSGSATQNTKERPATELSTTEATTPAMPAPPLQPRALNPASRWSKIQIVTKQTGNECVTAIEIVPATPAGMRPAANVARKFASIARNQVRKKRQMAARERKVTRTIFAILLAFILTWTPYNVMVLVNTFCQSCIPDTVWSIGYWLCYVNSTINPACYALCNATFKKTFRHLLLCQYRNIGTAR
Assay: mAChR M4 cell-based functional assay: calcium flux (Fluo-4, FDSS), positive allosteric modulator activity on the EC20 acetylcholine response, hM4-Gqi5 CHO-K1 cells
Conditions: CHO-K1, human M4; % ACh maximum at 30 μM
Emax at 30 µM values by entry

Consider the worked cases shown below.
molecule	Emax at 30 µM
Cc1nc(N2CCc3ncc(-c4cnn(C)c4)cc3C2)c2cc(Cl)ccc2n1	97%
COc1nc(N2CCc3ncc(C(F)(F)F)cc3C2)c2cc(C)ccc2n1	98%
Cc1nc(N2CCc3ncc(C(F)(F)F)cc3C2)c2cc(C3CC3)ccc2n1	77%
C[C@@H]1CN(c2ncnc3cc(F)c(F)cc23)Cc2cc(N3CCOCC3)cnc21	93%
CC(C)(C)c1cc2n(n1)CCCN2c1cnc2c(c1)CN(c1ncnc3ccc(F)cc13)CC2	72%
c1cnc2nc(NC3CC3)nc(N3CCc4ncc(N5CCCn6nccc65)cc4C3)c2c1	70%

Req: Entry Fc1ccc2ncnc(N3CCc4ncc(N5CCc6ncccc65)cc4C3)c2c1 has what Emax at 30 µM?
Resp: 74%

Req: For Fc1cccc(Oc2cnc3c(c2)CN(c2ncnc4cc(F)c(F)cc24)CC3)c1 , what is its reported Emax at 30 µM?
Resp: 81%

Req: Returns the measured Emax at 30 µM for the input molecule. Input: Fc1cc2ncnc(N3CCc4ncc(N5CCCn6nc(C(F)(F)F)cc65)cc4C3)c2cc1F
Resp: 76%

Req: Can you share its Emax at 30 µM? I mean this molecule: Fc1ccc2ncnc(N3CCc4ncc(N5CCCn6nc(C(F)(F)F)cc65)cc4C3)c2c1
Resp: 96%

Req: Please give the measured Emax at 30 µM for this molecule: Cc1nc(N2CCc3ncc(-c4cn(C)nc4C)cc3C2)c2cc(F)ccc2n1
Resp: 90%

Req: Dear colleague, I am looking for the recorded Emax at 30 µM of the following molecule: [2H]c1nc(N2CCc3ncc(-c4cnc(C)s4)cc3C2)c2cc(C)ccc2n1
Resp: 82%

Req: What does the record list as Emax at 30 µM for Fc1cc2ncnc(N3CCc4ncc(-n5cccn5)cc4C3)c2cc1F ?
Resp: 65%

Req: Which Emax at 30 µM is listed for Fc1ccc2ncnc(N3CCc4ncc(N5CCOC(c6ccccn6)C5)cc4C3)c2c1 (stereo not shown) ?
Resp: 65%

Req: Form field: reported Emax at 30 µM of COc1ccc2nc(O)nc(N3CCc4ncc(C(F)(F)F)cc4C3)c2c1
Resp: 44%

Req: Bench note: what Emax at 30 µM did C[C@H]1CN(c2ncnc3ccc(Cl)cc23)Cc2cc(N3CCOCC3)cnc21 show?
Resp: 88%

Source of measurements: patent US20250026752A1
